Assay: Cmax in Sprague-Dawley rat plasma at 10 mg/kg, ip measured upto 24 hrs post dose by LC-MS/MS analysis
readout.kind: Cmax (µg/mL)
Give the quantity in µg/mL, number only.

Entry under test: O=C(NCCc1cccc(Cl)c1)Nc1ccc(Cl)cc1 . Its Cmax was 0.288

====

Molecular target: Cannabinoid receptor 1 (Homo sapiens, UniProt P21554)
Sequence (P21554 whole entry): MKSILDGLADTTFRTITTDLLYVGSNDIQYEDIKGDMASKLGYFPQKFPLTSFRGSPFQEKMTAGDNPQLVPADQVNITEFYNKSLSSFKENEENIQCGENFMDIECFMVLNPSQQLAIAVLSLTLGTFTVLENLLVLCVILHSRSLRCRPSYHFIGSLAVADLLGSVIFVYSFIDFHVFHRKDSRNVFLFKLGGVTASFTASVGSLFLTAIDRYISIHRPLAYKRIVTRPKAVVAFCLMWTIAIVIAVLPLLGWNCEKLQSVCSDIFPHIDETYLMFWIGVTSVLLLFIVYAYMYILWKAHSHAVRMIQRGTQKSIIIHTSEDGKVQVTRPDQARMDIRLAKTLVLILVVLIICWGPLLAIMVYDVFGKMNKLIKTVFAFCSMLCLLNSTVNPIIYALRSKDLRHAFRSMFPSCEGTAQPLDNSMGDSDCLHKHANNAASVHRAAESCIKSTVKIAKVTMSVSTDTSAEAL
Experiment: Allosteric antagonist activity against human CB1 receptor expressed in HEK293 cells membrane measured after 60 mins by [35S]GTPgammaS binding assay
Type: functional, cell membranes
readout.kind: pIC50
Here pIC50 is given on a logarithmic scale as minus log10 of the concentration in mol/L.

// sample O=C(NCCc1ccccc1)Nc1ccc(Cl)cc1 , its pIC50 was 5.17

Short answer for O=C(NCCc1cccc(F)c1)Nc1ccc(Cl)cc1 : pIC50 was 5.17

The reported pIC50 of the molecule O=C(NCCc1cccc(Br)c1)Nc1ccc(Cl)cc1 was 5.46

Noted for Cc1ccc(CCNC(=O)Nc2ccc(Cl)cc2)cc1 : its pIC50 reads 4.86

Briefly, pIC50 measured for COc1cccc(CCNC(=O)Nc2ccc(Cl)cc2)c1 : 4.91

pIC50 reported for this molecule Cc1cc(C)cc(CCNC(=O)Nc2ccc(Cl)cc2)c1 : 5.18

Entry O=C(NCCc1ccccc1C(F)(F)F)Nc1ccc(Cl)cc1 — recorded pIC50 = 5.37

The measured pIC50 associated with Cc1cccc(CCNC(=O)Nc2ccc(Cl)cc2)c1 reads 5.52

Looking up Cc1ccc(CCNC(=O)Nc2ccc(Cl)cc2)cc1C , I found its pIC50 recorded as 5.59

pIC50 reading for COc1ccc(CCNC(=O)Nc2ccc(Cl)cc2)cc1 : 5.25

pIC50 reading for O=C(NCCc1ccc([N+](=O)[O-])cc1)Nc1ccc(Cl)cc1 : 5.53

# molecule O=C(NCCc1cccc(OC(F)(F)F)c1)Nc1ccc(Cl)cc1 ; its pIC50 = 5.10

GET /value?item= O=C(NCCc1cccc(C(F)(F)F)c1)Nc1ccc(Cl)cc1 &field=pIC50 returns 5.89

Record summary for O=C(NCCc1ccc(F)cc1)Nc1ccc(Cl)cc1 : reported pIC50 = 5.36

Per the records, this molecule ( O=C(NCCc1cc(Cl)cc(Cl)c1)Nc1ccc(Cl)cc1 ) has pIC50 equal to 5.76

The reported value for O=C(NCCc1cccc(Cl)c1)Nc1ccc(Cl)cc1 in terms of pIC50 is 5.29

Data point: N#Cc1cccc(CCNC(=O)Nc2ccc(Cl)cc2)c1 ; pIC50 = 6.08
